Give EC50 for every item shown.
EXPERIMENTAL TARGET: S1P3 (Homo sapiens, UniProt Q99500)
Sequence (Q99500 whole entry): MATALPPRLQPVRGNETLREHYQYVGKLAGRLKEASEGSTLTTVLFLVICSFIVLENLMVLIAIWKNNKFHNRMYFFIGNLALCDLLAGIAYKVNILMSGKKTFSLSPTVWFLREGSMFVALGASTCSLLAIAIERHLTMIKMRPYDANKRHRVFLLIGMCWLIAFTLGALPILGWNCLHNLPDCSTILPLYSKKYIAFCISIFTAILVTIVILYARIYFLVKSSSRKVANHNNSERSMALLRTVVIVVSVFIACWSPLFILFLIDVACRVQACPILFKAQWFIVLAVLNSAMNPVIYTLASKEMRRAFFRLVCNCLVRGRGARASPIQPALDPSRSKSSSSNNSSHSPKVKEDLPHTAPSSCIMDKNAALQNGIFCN
PROCEDURE TEXT: FlipR (Chem) GPCRProfiler assay, S1P3
Format: cell-based

Input: Which value of EC50 has been reported for CCc1cc(/C(C)=N/OCc2ccc(C3CCCCC3)c(C(F)(F)F)c2)ccc1CN1CC(C(=O)O)C1 in the records?
Output: > 30 µM

Input: Which value of EC50 has been reported for CCCCCCCCc1ccc(CCC(N)(CO)CO)cc1 in the records?
Output: 0.82 µM

Input: Which value of EC50 has been reported for Cc1cc(-c2nc3cnc(Oc4cccc(Cl)c4)nc3o2)cc(C)c1OCC(=O)O in the records?
Output: > 30 µM

---

EXPERIMENTAL TARGET: S1P4 (Homo sapiens, UniProt O95977)
Sequence (O95977 1-384): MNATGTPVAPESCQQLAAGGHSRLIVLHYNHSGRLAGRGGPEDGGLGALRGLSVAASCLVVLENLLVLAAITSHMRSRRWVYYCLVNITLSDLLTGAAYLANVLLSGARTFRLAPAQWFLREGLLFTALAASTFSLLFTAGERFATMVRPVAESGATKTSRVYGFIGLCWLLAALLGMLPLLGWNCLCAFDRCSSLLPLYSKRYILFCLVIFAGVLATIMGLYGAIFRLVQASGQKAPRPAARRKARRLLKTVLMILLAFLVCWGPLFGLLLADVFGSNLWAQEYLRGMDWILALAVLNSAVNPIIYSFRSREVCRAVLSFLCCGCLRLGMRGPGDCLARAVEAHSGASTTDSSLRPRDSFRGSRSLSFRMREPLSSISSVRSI
PROCEDURE TEXT: PathHunter β-arrestin assay, S1P4
Format: cell-based
RECORDED CONDITIONS: 0.5% FBS
Procedure: The PathHunter® β-Arrestin Assay from DiscoverX was used to determine the EC50 activity of compound A, BAF-312 and fingolimod on S1P1, S1P2, S1P3, S1P4 or S1P5 receptors. The compounds were tested in assay medium containing 0.5% FBS.
Give EC50 for every item shown.
Give the value in nM but do not write nM after it.

Input: Which value of EC50 has been reported for CCc1cc(/C(C)=N/OCc2ccc(C3CCCCC3)c(C(F)(F)F)c2)ccc1CN1CC(C(=O)O)C1 in the records?
Output: 2100

Input: Which value of EC50 has been reported for Cc1cc(-c2nc3cnc(Oc4cccc(Cl)c4)nc3o2)cc(C)c1OCC(=O)O in the records?
Output: 2500

---

EXPERIMENTAL TARGET: S1P3 (Homo sapiens, UniProt Q99500)
PROCEDURE TEXT: PathHunter β-arrestin assay, S1P3
Assay type: cell-based
RECORDED CONDITIONS: 0.5% FBS
REPORTED METRIC: EC50

Input: Which value of EC50 has been reported for CCc1cc(/C(C)=N/OCc2ccc(C3CCCCC3)c(C(F)(F)F)c2)ccc1CN1CC(C(=O)O)C1 [BAF-312] in the records?
Output: > 10 µM

Input: Which value of EC50 has been reported for Cc1cc(-c2nc3cnc(Oc4cccc(Cl)c4)nc3o2)cc(C)c1OCC(=O)O [Compound A] in the records?
Output: > 10 µM

---

PROCEDURE TEXT: Pharmacokinetics in beagle dog
RECORDED CONDITIONS: in vivo, po, 3 mg/kg p.o.
REPORTED METRIC: AUC (ng·h/mL)
Give the value in ng·h/mL but do not write ng·h/mL after it.

Input: Which value of AUC has been reported for Cc1cc(-c2nc3cnc(Oc4cccc(Cl)c4)nc3o2)cc(C)c1OCC(=O)O in the records?
Output: 41300
